Experiment: in vivo
Settings: rat, iv, 2 mg/kg
Description: Half life in rat at 2 mg/kg, iv
I'd be grateful if you could share measured half-life for these entries.
Numbers only, in h.

A selection of reference data follows.
// Input: CSc1sc(-c2cc[nH]n2)c2c1C(=O)NCC2 . Output its half-life only.
1.4

// Input: CC1(C)CC(=O)c2c(SC3CCCC3)sc(-c3cc[nH]n3)c2C1 . Output its half-life only.
1.2

// Input: CSc1sc(-c2cc[nH]n2)c2c1C(=O)CCC2 . Output its half-life only.
6.5

Further cases:
// Input: CCCSc1sc(-c2cc[nH]n2)c2c1C(=O)NC[C@@H]2C . Output its half-life only.
3.6
